# assayNotes: Retention of peptides P1-1 to P1-5 on a polypropylene sheet after successive washes
# Assay type: physicochemical
# details: after first wash: 1 M NaCl/10 mM tris-HCl (pH 8.0), one minute; background subtracted
# Procedure: Further experiments were undertaken to investigate the retention of peptides P1-1 to, P1-5 and P2-1 to P2-2, shown in Table 3, on a polypropylene surface. The polypropylene sheet was wiped with 50% (v/v) aqueous acetonitrile prior to use. 8× replicate 20 nl volumes of 1 μM peptides P1-1 to P1-5 and P2-1 to P2-2 and TAMRA in dimethyl sulphoxide (DMSO) were dispensed at 1 mm spacing to a 3″×1″×1 mm polypropylene sheet using the Piezorray system (PerkinElmer LAS). […]
Ends that are not written are not given here.
I'd appreciate it if you could supply Corrected signal, test array values for the items below.

Please review the following examples before continuing.
TAMRA-F-G-F-G-F-G-F-S-F-A-F-D-F-G-F ({TAMRA}-FGFGFGFSFAFDFGF) [Peptide P1-3] = 16,700,014
TAMRA-F-G-F-G-F-S-F-A-F-D-F-G-F ({TAMRA}-FGFGFSFAFDFGF) [Peptide P1-2] = 15,580,260
TAMRA-F-G-F-G-F-G-F-G-F-G-F-S-F-A-F-D-F-G-F ({TAMRA}-FGFGFGFGFGFSFAFDFGF) [Peptide P1-5] = 47,493,774

I'm hoping you can list Corrected signal, test array for every substance here, please.
1. TAMRA-F-G-F-S-F-A-F-D-F-G-F ({TAMRA}-FGFSFAFDFGF) [Peptide P1-1]
2. TAMRA-F-G-F-G-F-G-F-G-F-S-F-A-F-D-F-G-F ({TAMRA}-FGFGFGFGFSFAFDFGF) [Peptide P1-4]

1. 3,126,578
2. 35,325,352

###

# assayNotes: Retention of peptides on Greiner polypropylene V-bottom wells
# Type: physicochemical
# details: 400V scan
# Procedure: The retention of peptides 2DOS-1 to 2DOS-16 (see above) on polypropylene and polystyrene surfaces was compared: 5 mM tris-HCl (pH 8.0) in 75% (v/v) aqueous acetonitrile was used as the solvent for the peptides and for TAMRA. […] The fluorescence images were analysed using ImageQuant TL v2003.03 (Amersham Biosciences).
Ends that are not written are not given here.
measuredQuantity: Percent retention (%)
One number for each entry, in %.

Below, 5 substances whose answers are already recorded.
N-TAMRA-Phe-Asp- Phe-Ala-Phe-Ser- Phe-Lys-Phe-C ({TAMRA}-FDFAFSFKF) [Peptide 2DOS-2] = 78
N-TAMRA-Ser-Asp- Ser-Asp-Ser-Asp- Ser-Asp-Ser-C ({TAMRA}-SDSDSDSDS) [Peptide 2DOS-11] = 2
N-TAMRA-Asp-Phe- Asp-Phe-Asp-Phe- Asp-C ({TAMRA}-DFDFDFD) [Peptide 2DOS-14] = 13
N-TAMRA-Ser-Asp- Ser-Ala-Ser-Ser- Ser-Lys-Ser-C ({TAMRA}-SDSASSSKS) [Peptide 2DOS-3] = 10
N-TAMRA-Asp-Phe- Ala-Phe-Ser-Phe- Lys-C ({TAMRA}-DFAFSFK) [Peptide 2DOS-6] = 22

Would you mind giving Percent retention for every substance in the list below?
1. N-TAMPA-Asp-Asp- Ala-Asp-Ser-Asp- Lys-C ({TAMRA}-DDADSDK) [Peptide 2DOS-8]
2. N-TAMPA-Asp-Asp- Asp-Asp-Asp-Asp- Asp-C ({TAMRA}-DDDDDDD) [Peptide 2DOS-16]
3. N-TAMRA-Asp-Ser- Asp-Ser-Asp-Ser- Asp-C ({TAMRA}-DSDSDSD) [Peptide 2DOS-15]
4. N-TAMRA-Asp-Ser- Ala-Ser-Ser-Ser- Lys-C ({TAMRA}-DSASSSK) [Peptide 2DOS-7]

1. 2
2. 1
3. 1
4. 5
